The reader will find reported viability, T/C values listed item by item below.
- System: 435261-313-R-J1-PDC tumor spheroid viability;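 also: spheroids exposed to compounds for 7 days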
- test_summary: Anticancer human tumor 435261-313-R-J1-PDC patient-derived colon adenocarcinoma cell line growth inhibition [PI3K]
- condition_set: second compound 0.0316 µM; first compound 1 µM; stronger effect = lower value; spheroids with HUVEC and MSC
Could you give me the number in %? Just the number is fine.

# annotated cases, reported viability, T/C shown
C[C@@H](NC(=O)c1ncnc(N)c1Cl)c1ncc(C(=O)Nc2cc(C(F)(F)F)c(Cl)cn2)s1 + COc1c(OCCCN2CCOCC2)ccc2c3n(c(=NC(=O)c4cnc(N)nc4)nc12)CCN3 = 30.1
CC(Cn1ccc(-c2ccc(C#N)c(Cl)c2)n1)NC(=O)c1cc(C(C)O)[nH]n1 (stereo unspecified) + CC(Nc1ncnc2nc[nH]c12)c1cc2cccc(Cl)c2c(=O)n1-c1ccccc1 = 75.8
CC1(C)CCC(Nc2ncc(C(F)(F)F)c(-c3c[nH]c4c(P(C)(C)=O)c(C#N)ccc34)n2)CN1 (stereo unspecified) + Cc1nc(NC(=O)N2CCCC2C(N)=O)sc1-c1ccnc(C(C)(C)C(F)(F)F)c1 = 38.1
CC(C)NCC(C(=O)N1CCN(c2ncnc3c2C(C)CC3O)CC1)c1ccc(Cl)cc1 (stereo unspecified) + CC(Nc1ncnc2nc[nH]c12)c1cc2cccc(Cl)c2c(=O)n1-c1ccccc1 = 76.7
CCN1CCN(Cc2ccc(Nc3ncc(F)c(-c4cc(F)c5nc(C)n(C(C)C)c5c4)n3)nc2)CC1 + CC(Nc1ccc2c(c1)OCCn1cc(N3C(=O)OCC3C(F)F)nc1-2)C(N)=O = 30.5

Attention now shifts to the item below.
**Query** Kindly state the measured viability, T/C obtained for CC1(C)CCC(CN2CCN(c3ccc(C(=O)NS(=O)(=O)c4ccc(NCC5CCOCC5)c([N+](=O)[O-])c4)c(Oc4cnc5[nH]ccc5c4)c3)CC2)=C(c2ccc(Cl)cc2)C1 + CC(Nc1ncnc2nc[nH]c12)c1cc2cccc(Cl)c2c(=O)n1-c1ccccc1 with 435261-313-R-J1-PDC tumor spheroid viability.
**Result** 80
